Listed compounds paired with reported IC50
# System: M. tuberculosis H37Rv growth inhibition with meropenem
# PROCEDURE_DETAILS: dose response, H37Rv, with and without meropenem (AID 434987);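 note: growth over 7 days at 37 °C before Alamar Blue read on day 9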
# SETUP_CONDITIONS: M. tuberculosis H37Rv growth inhibition; measured here: IC50 without meropenem

Worked cases, answers included:
Cc1ccccc1Cn1cc(NC(=O)CSc2nc3c(c(C(F)(F)F)n2)CCc2ccccc2-3)cn1: > 100 µM
Cc1ccc(C)c(N2CCN(C3CCCC(C)C3)CC2)c1 (stereo unspecified): 48.7 µM
CCOc1ccc(N=c2cc(-c3ccc(OC)cc3)oc3ccccc23)cc1: 40.1 µM
COc1cc(C(=O)Oc2ccccc2/C=N/NC(=O)c2ccc(C)c(Cl)c2)cc(OC)c1OC: > 100 µM
Cc1ccc(C)c(SCC(=O)OCC(=O)N2CC(C)OC(C)C2)c1 (stereo unspecified): > 100 µM
CSc1ccc(/C=C/C(=O)NC23CC4CC(CC(C4)C2)C3)cc1: 27.2 µM

Challenge: Report IC50 for CC(=O)Nc1cccc(/C(C)=N/NC(N)=S)c1 please.
Response given: > 100 µM

Challenge: What value of IC50 has been reported for the following compound? CCOC(=O)Cn1c(C)cc(=O)c2cccc(C)c21
Response given: > 100 µM

Challenge: Look up IC50 for this compound: c1ccc(OCc2nnc(-c3ccccc3)o2)cc1
Response given: 80.4 µM

Challenge: Record request: IC50 value, item c1ccc(-c2n[nH]c3c2CCC3)cc1
Response given: 14.4 µM

Challenge: Given the compound CS(=O)(=O)N(Cc1ccc(Cl)cc1)c1ccc(C(=O)NCCC2=CCCCC2)cc1 , what is its reported IC50?
Response given: > 100 µM

Challenge: Which IC50 is reported for this compound? O=C(Nc1ccc2oc(-c3ccc(Cl)c(Cl)c3)nc2c1)c1ncn[nH]1
Response given: 79.8 µM

Challenge: Value lookup for IC50; key = CC1(C)Cc2c(C#N)c(SCc3ccccc3)nc(N3CCOCC3)c2CO1
Response given: > 100 µM

Challenge: Given the compound COc1ccccc1C(=O)Nc1sc2c(c1C(=O)NCc1ccco1)CCCC2 , what is its reported IC50?
Response given: > 100 µM

Challenge: So what's the measured IC50 for this one? O=C(Cc1ccc(Cl)cc1Cl)Nc1ccc(OC(F)F)c(Cl)c1
Response given: > 100 µM

Challenge: Name the reported IC50 value associated with the compound CN(C)CC(=O)Nc1nc(-c2ccccc2)cs1
Response given: 83 µM

Challenge: Given the entry CC(C)(C)OC(=O)N1CCC(NC(=O)c2[nH]cnc2C(=O)Nc2ccccc2)CC1 , report its measured IC50.
Response given: > 100 µM

Challenge: Item COc1cccc(NC(=O)c2cc(-c3cccnc3)nc3c(Cl)cccc23)c1 has what recorded IC50?
Response given: > 100 µM

Challenge: Fill blank: measured IC50 of the compound CCOC(=O)C1CCCN(c2ccc(NC(=O)c3snc4c(=O)[nH]cnc34)cc2)C1 (stereo unspecified) is ____.
Response given: 59.4 µM

Challenge: # lookup: IC50 of CC(C)(C)c1nnc2sc(SCC(=O)c3cccs3)nn2c1=O
Response given: > 100 µM

Challenge: Which IC50 reading was recorded for the compound Cc1ccc(-n2ncc(-c3nnc(SCC(=O)NC4CCCC4)o3)c2N)cc1C ?
Response given: > 100 µM
